System: MDA-MB-436
Assay: normalised viability (% of control), CellTiter-Blue; higher = more viable cells (about 100 = DMSO control)
Details: 10 nM; incubation time: 72 h
Assay endpoint: normalised viability (%)
Express your answer in %, writing the number without its unit.

Q: Need normalised viability, item CCCCC(=O)OCC(=O)[C@]1(O)Cc2c(O)c3c(c(O)c2[C@@H](O[C@H]2C[C@H](NC(=O)C(F)(F)F)[C@H](O)[C@H](C)O2)C1)C(=O)c1c(OC)cccc1C3=O
Result: 111

Q: I'd like to know its normalised viability. The compound in question is CC1=C(/C=C/C(C)=C/C=C/C(C)=C/C(=O)O)C(C)(C)CCC1
Result: 97.9

====

Test system: CAL-85-1
Details: 72 h
Assay endpoint: EC50, CellTiter-Glo (µM)
Give just the number in µM; leave the unit off.

# example entries with known answers
>  <Compound>
O=C(Cc1ccc(-c2ccc(OCCN3CCOCC3)cc2)cn1)NCc1ccccc1

>  <System tested>
CAL-85-1

>  <EC50, CellTiter-Glo / µM>
0.023

$$$$
>  <Compound>
COc1cc([C@@H]2c3cc4c(cc3[C@@H](O[C@@H]3O[C@@H]5CO[C@@H](c6cccs6)O[C@H]5[C@H](O)[C@H]3O)[C@H]3COC(=O)[C@H]23)OCO4)cc(OC)c1O [Teniposide]

>  <System tested>
CAL-85-1

>  <EC50, CellTiter-Glo / µM>
1.19

$$$$
>  <Compound>
CC[C@H](C)C(=O)O[C@H]1C[C@H](O)C=C2C=C[C@H](C)[C@H](CC[C@@H](O)C[C@@H](O)CC(=O)O)[C@H]21

>  <System tested>
CAL-85-1

>  <EC50, CellTiter-Glo / µM>
8.62

$$$$

Then there is this compound:
Q: State the recorded EC50, CellTiter-Glo for this entry: C=CCc1cccc(/C=N/NC(=O)CN2CCN(Cc3ccccc3)CC2)c1O
Result: 5.25

====

System: CAL-148
Experiment: normalised response (% of control), CellTiter-Glo; higher = more viable cells (100 = DMSO, 0 = benzethonium chloride kill control)
Details: incubation time: 72 h
normalised response reference
State the answer as a number, implicitly in %.

# example entries with known answers
>  <Molecule>
COc1cc2nccc(Oc3ccc(NC(=O)Nc4cc(C)on4)c(Cl)c3)c2cc1OC [Tivozanib] (10000 nM)

>  <Assay endpoint>
normalised response

>  <Numeric result>
77.6

$$$$
>  <Molecule>
C=CC(=O)Nc1cc2c(Nc3ccc(F)c(Cl)c3)ncnc2cc1OCCCN1CCOCC1 [Canertinib] (10000 nM)

>  <Assay endpoint>
normalised response

>  <Numeric result>
42.9

$$$$
>  <Molecule>
Nc1nc(F)nc2c1ncn2[C@@H]1O[C@H](CO)[C@@H](O)[C@@H]1O [Fludarabine] (10000 nM)

>  <Assay endpoint>
normalised response

>  <Numeric result>
87.6

$$$$
>  <Molecule>
O=C(Cc1ccc(-c2ccc(OCCN3CCOCC3)cc2)cn1)NCc1ccccc1 [KX2-391] (10000 nM)

>  <Assay endpoint>
normalised response

>  <Numeric result>
54.9

$$$$
>  <Molecule>
CC1=C(/C=C/C(C)=C/C=C/C(C)=C/C(=O)O)C(C)(C)CCC1 [Tretinoin] (10000 nM)

>  <Assay endpoint>
normalised response

>  <Numeric result>
75

$$$$
>  <Molecule>
Oc1ncc(N(CCCl)CCCl)c(O)n1 [Uracil mustard] (10000 nM)

>  <Assay endpoint>
normalised response

>  <Numeric result>
107

$$$$

Q: Fill in the blank: the reported normalised response of O=C(O)CCCCC(CCSCc1ccccc1)SCc1ccccc1 (centres undefined) [CPI-613] (10000 nM) is ____.
Result: 105

Q: Look up normalised response: Nc1ccccc1NC(=O)c1ccc(CNC(=O)OCc2cccnc2)cc1 [Entinostat] (10000 nM)
Result: 29.8

Q: Which normalised response is listed for C=CCc1cccc(/C=N/NC(=O)CN2CCN(Cc3ccccc3)CC2)c1O [PAC-1] (10000 nM) ?
Result: 26.6

====

A collection of molecules and their measured normalised response
Tested on: HDQ-P1
Assay: normalised response (% of control), CellTiter-Glo; higher = more viable cells (100 = DMSO, 0 = benzethonium chloride kill control)
Conditions: incubation time: 72 h

>  <Molecule>
COc1cc([C@@H]2c3cc4c(cc3[C@@H](O[C@@H]3O[C@@H]5CO[C@@H](c6cccs6)O[C@H]5[C@H](O)[C@H]3O)[C@H]3COC(=O)[C@H]23)OCO4)cc(OC)c1O [Teniposide] (1000 nM)

>  <normalised response>
84.1%

$$$$
>  <Molecule>
C=CCc1cccc(/C=N/NC(=O)CN2CCN(Cc3ccccc3)CC2)c1O [PAC-1] (10 nM)

>  <normalised response>
98.9%

$$$$

Q: May I ask what normalised response has been recorded for COc1cc([C@@H]2c3cc4c(cc3[C@@H](O[C@@H]3O[C@@H]5CO[C@@H](c6cccs6)O[C@H]5[C@H](O)[C@H]3O)[C@H]3COC(=O)[C@H]23)OCO4)cc(OC)c1O [Teniposide] (10 nM) ?
Result: 95.3%

Q: normalised response for CCN(CC)CCCC(C)Nc1c2ccc(Cl)cc2nc2ccc(OC)cc12 (centres undefined) [Mepacrine] (50 nM) ?
Result: 104%

Q: Find the recorded normalised response belonging to C=CCc1cccc(/C=N/NC(=O)CN2CCN(Cc3ccccc3)CC2)c1O [PAC-1] (1000 nM) and report it.
Result: 93.3%

Q: If you can, please state the reported normalised response value of C[C@H]1C[C@@H]2[C@H]([C@@H](O)C[C@@]3(C)[C@H]2CC[C@]3(O)C(=O)CO)[C@@]2(C)C=CC(=O)C=C12 [Methylprednisolone] (1000 nM) .
Result: 83.2%

Q: # input molecule: Nc1ncn([C@H]2C[C@H](O)[C@@H](CO)O2)c(=O)n1 [Decitabine] (10 nM) ; wanted: its normalised response
Result: 98.8%

Q: Please look up its normalised response: O=C(O)CCCCC(CCSCc1ccccc1)SCc1ccccc1 (centres undefined) [CPI-613] (1 nM)
Result: 100%

====

System: BT-474
Assay: normalised response (% of control), CellTox Green; higher = less cell death (100 = DMSO, 0 = benzethonium chloride kill control)
Settings: incubation time: 72 h
compounds and their reported normalised response
Field format: number, assumed %, no unit text.

>  <Compound>
COc1cc([C@@H]2c3cc4c(cc3[C@@H](O[C@@H]3O[C@@H]5CO[C@@H](c6cccs6)O[C@H]5[C@H](O)[C@H]3O)[C@H]3COC(=O)[C@H]23)OCO4)cc(OC)c1O [Teniposide] (10000 nM)

>  <Display unit>
%

>  <normalised response>
59.4

$$$$
>  <Compound>
COc1cc2c(NC3CCN(C(C)C)CC3)nc(C3CCCCC3)nc2cc1OCCCN1CCCC1 [UNC0638] (100 nM)

>  <Display unit>
%

>  <normalised response>
101

$$$$
>  <Compound>
O=C(O)C(=O)O.[NH-][C@@H]1CCCC[C@H]1[NH-].[Pt+2] [Oxaliplatin] (10000 nM)

>  <Display unit>
%

>  <normalised response>
96.6

$$$$

Q: Would you mind telling me what normalised response value was observed for Cc1cnc(NC(=O)Nc2cc(Br)c(C)cc2OC[C@@H]2CNCCO2)cn1 [Rabusertib] (1000 nM) ?
Result: 103

Q: I would be grateful if you could share the reported normalised response for C=CCc1cccc(/C=N/NC(=O)CN2CCN(Cc3ccccc3)CC2)c1O [PAC-1] (10000 nM) .
Result: 74.2

Q: Recorded normalised response for C=CC(=O)Nc1cc2c(Nc3ccc(F)c(Cl)c3)ncnc2cc1OCCCN1CCOCC1 [Canertinib] (1000 nM) , please?
Result: 83.2

Q: Recorded normalised response for Nc1nc(F)nc2c1ncn2[C@@H]1O[C@H](CO)[C@@H](O)[C@@H]1O [Fludarabine] (10000 nM) , please?
Result: 97.5

Q: Quick one: normalised response for N#Cc1ccc(C(c2ccc(C#N)cc2)n2cncn2)cc1 [Letrozole] (10000 nM) ?
Result: 102

====

Item-by-item account of normalised viability
System: HCC1599
Assay: normalised viability (% of control), CellTiter-Blue; higher = more viable cells (about 100 = DMSO control)
Conditions: 10000 nM; incubation time: 72 h
Return type: number; implicit unit %.

See these solved cases before continuing.
>  <Compound>
CC[C@H](Nc1ncnc2[nH]cnc12)c1nc2cccc(F)c2c(=O)n1-c1ccccc1

>  <Numeric result>
49.1

$$$$
>  <Compound>
Nc1nc2[nH]cc(CCc3ccc(C(=O)N[C@@H](CCC(=O)O)C(=O)O)cc3)c2c(=O)[nH]1

>  <Numeric result>
106

$$$$
>  <Compound>
C[C@H]1C[C@@H]2[C@H]([C@@H](O)C[C@@]3(C)[C@H]2CC[C@]3(O)C(=O)CO)[C@@]2(C)C=CC(=O)C=C12

>  <Numeric result>
92.5

$$$$
>  <Compound>
Oc1ncc(N(CCCl)CCCl)c(O)n1

>  <Numeric result>
92.7

$$$$
>  <Compound>
CCN(CC)CCCC(C)Nc1c2ccc(Cl)cc2nc2ccc(OC)cc12 (stereo unspecified)

>  <Numeric result>
30.9

$$$$

Please look at the following compound next.
Q: Reported normalised viability for HCC1599, given C=CC(=O)Nc1cc2c(Nc3ccc(F)c(Cl)c3)ncnc2cc1OCCCN1CCOCC1 ?
Result: 43.9
